Assay system: Serine/threonine-protein kinase VRK2 (Homo sapiens) (UniProt Q86Y07)
Sequence (Q86Y07 whole entry): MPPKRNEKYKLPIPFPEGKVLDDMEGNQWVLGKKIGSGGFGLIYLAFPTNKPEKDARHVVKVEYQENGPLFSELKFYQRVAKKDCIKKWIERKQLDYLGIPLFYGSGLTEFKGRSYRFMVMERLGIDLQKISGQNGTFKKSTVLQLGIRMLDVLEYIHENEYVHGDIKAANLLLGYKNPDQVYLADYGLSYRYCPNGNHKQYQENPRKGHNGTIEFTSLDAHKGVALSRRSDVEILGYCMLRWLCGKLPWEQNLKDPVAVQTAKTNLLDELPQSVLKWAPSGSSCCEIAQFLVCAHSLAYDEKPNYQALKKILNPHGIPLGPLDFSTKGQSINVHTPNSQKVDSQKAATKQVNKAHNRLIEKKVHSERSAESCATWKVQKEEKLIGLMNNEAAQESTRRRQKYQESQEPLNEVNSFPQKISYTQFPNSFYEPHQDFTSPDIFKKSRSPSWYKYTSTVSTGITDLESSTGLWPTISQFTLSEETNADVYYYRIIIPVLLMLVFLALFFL
Reported conditions: at 10 µM
Description: Millipore: Percentage of residual kinase activity of VRK2 at 10uM relative to control. Control inhibitor: Phosphoric acid* at 0.3uM. Buffer: 8 mM MOPS pH 7.0, 0.2 mM EDTA
Experimental endpoint: residual activity (%)
Give bare numbers, in %.

[[record]]
smiles_string = "O=C1c2ccccc2-[n+]2ccc3c([nH]c4ccccc43)c21"
units_text = "%"
numeric_readout = 92


# batch: return residual activity for each of the 3 compounds below
1. Cc1cccc(-c2[nH]c(C(C)(C)C)nc2-c2ccc3c(c2)OCO3)n1
2. c1ccc(-c2n[nH]c3c2oc2ccccc23)cc1
3. CO[C@H]1C[C@@H]2CC[C@@H](C)[C@@](O)(O2)C(=O)C(=O)N2CCCC[C@H]2C(=O)O[C@H]([C@H](C)C[C@@H]2CC[C@@H](O)[C@H](OC)C2)CC(=O)[C@H](C)/C=C(\C)[C@@H](O)[C@@H](OC)C(=O)[C@H](C)C[C@H](C)/C=C/C=C/C=C/1C

-- reply
[71, 77, 97]
